EXPERIMENTAL TARGET: TAAR1 (Mus musculus)
PROTOCOL: TAAR1 radioligand binding, membranes of stably transfected HEK293 cells (mouse)
REPORTED CONDITIONS: mouse/rat; cell not marked 'rat'; radioligand [3H]-rac-2-(1,2,3,4-tetrahydro-1-naphthyl)-2-imidazoline, 4° C.; read-out: Ki (μM) mouse/rat
Each entry below carries its recorded Ki.
Express your answer in µM, writing the number without its unit.

>>> numeric_value("NC1=N[C@@H](c2cccc(Cl)c2Cl)CO1 [Example 168]")
0.0006

// query Name the recorded Ki of the item NC1=N[C@@H](c2ccc(F)c(Cl)c2)CO1 [Example 172] in your answer.
// result 0.0019

// query Name the recorded Ki of the item NC1=N[C@@H](c2ccccc2C(F)(F)F)CO1 [Example 122] in your answer.
// result 0.0034

// query Name the recorded Ki of the item C[C@]1(c2ccc(F)c(Cl)c2)COC(N)=N1 [Example 277] in your answer.
// result 0.0016

---

EXPERIMENTAL TARGET: TAAR1 (Mus musculus)
PROTOCOL: TAAR1 radioligand binding, membranes of stably transfected HEK293 cells (mouse)
REPORTED CONDITIONS: mouse/rat; cell not marked 'rat'; radioligand [3H]-rac-2-(1,2,3,4-tetrahydro-1-naphthyl)-2-imidazoline, 4° C.; read-out: Ki (μM) mouse/rat
Each entry below carries its recorded Ki.
Express your answer in µM, writing the number without its unit.

The following compounds have reported results that may help.
>>> numeric_value("NC1=N[C@@H](CCc2cccc(OC(F)(F)C(F)F)c2)CO1")
0.0027
>>> numeric_value("NC1=N[C@@H](CCc2cccc(C(F)(F)F)c2Cl)CO1")
0.001

// query Name the recorded Ki of the item NC1=N[C@@H](Cc2ccc3ccccc3c2)CO1 in your answer.
// result 0.0054

// query Name the recorded Ki of the item NC1=N[C@@H](CC2(c3ccccc3)CC2)CO1 in your answer.
// result 0.0045

// query Name the recorded Ki of the item CC(C[C@H]1COC(N)=N1)c1cccc(C(F)(F)F)c1 (some centres unmarked) in your answer.
// result 0.0043

---

EXPERIMENTAL TARGET: TAAR1 (Mus musculus)
PROTOCOL: TAAR1 radioligand binding, membranes of stably transfected HEK293 cells (mouse)
REPORTED CONDITIONS: mouse/rat; cell not marked 'rat'; radioligand [3H]-rac-2-(1,2,3,4-tetrahydro-1-naphthyl)-2-imidazoline, 4° C.; read-out: Ki (μM) mouse/rat
Simple rule here: Ki less than 0.003 µM is Y, otherwise N.

>>> group_label("Cc1cc([C@@]2(C)COC(N)=N2)c(F)cc1Cl [Example 308]")
"Y"

Read the next record carefully.
// query Lab note: confirm whether the reported Ki for this compound is below 0.003 µM, equality not counting. compound: CC1(c2cc(F)c(F)c(F)c2)COC(N)=N1 (racemic) [Example 273]
// result N

---

EXPERIMENTAL TARGET: TAAR1 (Mus musculus)
PROTOCOL: TAAR1 radioligand binding, membranes of stably transfected HEK293 cells (mouse)
MEASUREMENT KIND: pKi
Answer as the number alone; pKi is minus log10 of concentration in mol/L.

The following molecules have reported results that may help.
>>> numeric_value("NC1=NC(c2cc(Cl)ccc2C(F)(F)F)CO1 (racemic)")
8.21
>>> numeric_value("CC1(c2cc(F)c(Cl)cc2F)COC(N)=N1 (racemic)")
8.89
>>> numeric_value("NC1=NC(c2cccc(Br)c2)CO1 (racemic)")
8.35
>>> numeric_value("NC1=N[C@@H](c2ccc(F)cc2F)CO1 [37b (S)]")
8.06

// query Name the recorded pKi of the item NC1=NC(c2ccc(-c3ccccc3)cc2)CO1 (racemic) in your answer.
// result 8.60

// query Name the recorded pKi of the item NC1=NC(c2cc(Cl)ccc2F)CO1 (racemic) in your answer.
// result 8.74

// query Name the recorded pKi of the item Cc1ccc(F)cc1C1COC(N)=N1 (racemic) in your answer.
// result 8.66
